- Test Target: UniProtKB P14842
- Sequence (P14842 whole entry): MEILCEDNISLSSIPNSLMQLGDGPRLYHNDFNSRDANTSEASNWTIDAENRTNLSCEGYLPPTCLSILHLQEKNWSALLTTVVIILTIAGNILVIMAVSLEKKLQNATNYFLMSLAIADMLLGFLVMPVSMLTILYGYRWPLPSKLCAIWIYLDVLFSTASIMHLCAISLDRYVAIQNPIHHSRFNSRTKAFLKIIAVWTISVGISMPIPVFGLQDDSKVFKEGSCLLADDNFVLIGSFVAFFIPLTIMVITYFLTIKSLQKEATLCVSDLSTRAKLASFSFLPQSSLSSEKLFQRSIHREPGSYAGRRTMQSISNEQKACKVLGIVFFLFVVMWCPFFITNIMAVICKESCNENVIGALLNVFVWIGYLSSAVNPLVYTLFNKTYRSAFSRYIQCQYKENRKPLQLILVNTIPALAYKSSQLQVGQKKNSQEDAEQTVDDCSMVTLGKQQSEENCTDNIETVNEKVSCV
- Measurement Notes: Agonist activity at 5HT2A receptor in rat A7r5 cells assessed as intracellular calcium mobilization relative to 5HT
- Format: functional, cell-based
This section presents compounds with their documented Emax values.
Express it in %; write the number only.

Worked examples follow.
| Chemical Smiles | Unit Info | Emax |
| --- | --- | --- |
| C[C@@H](N)Cc1c2ccoc2c(CO)c2ccoc12 | % | 38 |
| COc1cc(C[C@@H](C)N)c(OC)cc1I | % | 33 |
| C[C@@H](N)Cc1c2c(c(CCC(=O)O)c3c1OCC3)OCC2 | % | 15 |
| C[C@@H](N)Cc1c2c(c(CC(=O)O)c3c1OCC3)OCC2 | % | 45 |
| COC(=O)c1c2c(c(C[C@@H](C)N)c3c1OCC3)OCC2 | % | 48 |

--- query ---
The compound identified as COC(=O)CCc1c2c(c(C[C@@H](C)N)c3c1OCC3)OCC2 registered its Emax at 40
